tested on: dead bacterial cells of ice nucleation active bacteria (Erwinia ananas); experiment: supercooling activity (droplet freezing on cooled copper plate, temperature at which 50% of droplets are frozen); type: physicochemical; conditions: 0.1 mg/mL test compound; otherwise as example 1; cooling 0.2° C./min
Attribute Measured: supercooling activity (°C)
Write it as a number; the unit °C goes unstated.

Completed entries (count: 3):
>>> recorded_measurement("O=c1cc(-c2ccc(O)cc2)oc2cc(O[C@@H]3O[C@H](CO)[C@@H](O)[C@H](O)[C@H]3O)cc(O)c12 [compound 6, apigenin 7-O-β-D-glucopyranoside]")
"−12.0"
>>> recorded_measurement("C[C@@H]1O[C@@H](O[C@H]2[C@H](Oc3cc(O)c4c(=O)cc(-c5ccc(O)cc5)oc4c3)O[C@H](CO)[C@@H](O)[C@@H]2O)[C@H](O)[C@H](O)[C@H]1O [compound 8, apigenin 7-O-β-neohesperidoside]")
"−1.8"
>>> recorded_measurement("O=c1cc(-c2ccccc2)oc2cc(O[C@@H]3O[C@H](CO)[C@@H](O)[C@H](O)[C@H]3O)cc(O)c12 [compound 5, Chrycin-7-O-β-D-glucopyranoside]")
"−4.5"

We next turn to a different molecule, shown below.
INPUT: Which supercooling activity value is on record for O=c1cc(-c2ccc(O[C@@H]3O[C@H](CO)[C@@H](O)[C@H](O)[C@H]3O)cc2)oc2cc(O[C@@H]3O[C@H](CO)[C@@H](O)[C@H](O)[C@H]3O)cc(O)c12 [compound 7, apigenin 4′, 7-di-O-β-D-glucopyranoside] ?
OUTPUT: −4.9
